- Tested on: KRAS-mutant PDC complex spheroid viability;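 further: viability read after seven days of compound exposure; 100% = DMSO vehicle-treated spheroids so lower means less viable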
- TEST_PROTOCOL: Anticancer human tumor 186277-243-T-J2-PDC patient-derived colon adenocarcinoma cell line growth inhibition [KRAS2]
- ASSAY_CONTEXT: second compound 0.316 µM; first compound 0.0316 µM; active compounds read low
METRIC_NAME: viability, T/C (%)
Expressed in %, but write only the number.

Challenge: I would be grateful if you could share the reported viability, T/C for O=C(c1cc(Cc2n[nH]c(=O)c3ccccc23)ccc1F)N1CCN(C(=O)C2CC2)CC1 + CNCc1ccccc1-c1csc(C(C)Nc2nc(C)nc3cc(OC)c(OC)cc23)c1 .
Response given: 107

Challenge: What do you get for CN(C)C/C=C/C(=O)Nc1cc2c(Nc3ccc(F)c(Cl)c3)ncnc2cc1O[C@H]1CCOC1 + C=CC(=O)N1CCN(c2nc(=O)n(-c3c(C)ccnc3C(C)C)c3nc(-c4c(O)cccc4F)c(F)cc23)C(C)C1 ?
Response given: 107

Challenge: Do the same for COc1cc(Nc2ncc3c(n2)-c2ccc(Cl)cc2C(c2c(F)cccc2OC)=NC3)ccc1C(=O)O + CNCc1ccccc1-c1csc(C(C)Nc2nc(C)nc3cc(OC)c(OC)cc23)c1 please
Response given: 32.8

Challenge: Follow-up item: COc1cc(Nc2ncc3c(n2)-c2ccc(Cl)cc2C(c2c(F)cccc2OC)=NC3)ccc1C(=O)O + COc1cc2nc(C)nc(NC(C)c3cc(N)cc(C(F)(F)F)c3)c2cc1OC1CCOC1
Response given: 26.8

Challenge: Moving on to the next compound: CC(C)NCC(C(=O)N1CCN(c2ncnc3c2C(C)CC3O)CC1)c1ccc(Cl)cc1 (stereo not drawn) + COc1cc2nc(C)nc(NC(C)c3cc(N)cc(C(F)(F)F)c3)c2cc1OC1CCOC1
Response given: 100

Challenge: Also need COc1cc(Nc2ncc3c(n2)-c2ccc(Cl)cc2C(c2c(F)cccc2OC)=NC3)ccc1C(=O)O + C=CC(=O)N1CCN(c2nc(OCC3CCCN3C)nc3c2CCN(c2cccc4cccc(C)c24)C3)CC1CC#N , thanks.
Response given: 34.3

Challenge: Also check Cn1nccc1Nc1nccc(-c2cc3c(s2)C(C)(C)N(CCN2CCOCC2)C3=O)n1 + COc1cc2nc(C)nc(NC(C)c3cc(N)cc(C(F)(F)F)c3)c2cc1OC1CCOC1
Response given: 93.1

Challenge: // next record CC1OCC2(CCN(c3cnc(Sc4ccnc(N)c4Cl)c(N)n3)CC2)C1N (stereo not drawn) + C=CC(=O)N1CCN(c2nc(=O)n(-c3c(C)ccnc3C(C)C)c3nc(-c4c(O)cccc4F)c(F)cc23)C(C)C1
Response given: 99.9

These measurements were taken from PubChem BioAssay AID1963875.
